Documented Ag Score across a set of binders
# target_system: T1, RSV F antigen (respiratory syncytial virus (RSV), UniProt P03420 26-524)
# T1 construct: also called F antigen of RSV; RSV F protein
# T1 sequence (P03420 26-524): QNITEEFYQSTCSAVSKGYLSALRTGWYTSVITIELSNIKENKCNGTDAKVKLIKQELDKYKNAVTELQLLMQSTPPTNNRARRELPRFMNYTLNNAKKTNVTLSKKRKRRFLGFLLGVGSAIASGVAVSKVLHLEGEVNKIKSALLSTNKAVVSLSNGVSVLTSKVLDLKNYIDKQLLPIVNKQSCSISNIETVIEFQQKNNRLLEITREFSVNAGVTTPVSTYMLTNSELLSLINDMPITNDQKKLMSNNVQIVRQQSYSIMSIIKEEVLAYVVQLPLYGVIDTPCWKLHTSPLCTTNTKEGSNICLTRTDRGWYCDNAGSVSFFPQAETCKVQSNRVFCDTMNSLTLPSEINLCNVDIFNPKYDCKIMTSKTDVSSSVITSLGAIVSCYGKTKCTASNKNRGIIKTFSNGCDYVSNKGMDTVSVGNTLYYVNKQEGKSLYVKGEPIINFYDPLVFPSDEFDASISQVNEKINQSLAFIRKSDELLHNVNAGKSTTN
# test_details: antibody titration ELISA on 500 ng RSV F antigen; qualitative score from titration curves

Previously resolved entries follow.
[
  {
    "binder": "clone 12 (PWFF) (antibody, V domains shown) VH: QVTLRESGPALVKPTQTLTLTCTFSGFSLSTPGMSVGWIRQPPGKALEWLADIWWDDKKDYNPSLKSRLTISKDTSKNQVVLKVTNMDPADTATYYCARSMITNWYFDVWGQGTTVTVSS VL: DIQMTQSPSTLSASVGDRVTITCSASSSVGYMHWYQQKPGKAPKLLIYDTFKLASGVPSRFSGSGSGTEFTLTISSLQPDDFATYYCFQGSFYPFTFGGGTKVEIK",
    "readout_label": "Ag Score",
    "val": "2.5 arbitrary score (0-4)"
  },
  {
    "binder": "clone 2 (AFFG) (Fab, V domains shown) VH: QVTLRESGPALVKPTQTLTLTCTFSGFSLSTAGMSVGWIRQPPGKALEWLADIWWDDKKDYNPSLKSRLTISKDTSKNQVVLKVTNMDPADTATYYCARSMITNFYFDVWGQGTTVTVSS VL: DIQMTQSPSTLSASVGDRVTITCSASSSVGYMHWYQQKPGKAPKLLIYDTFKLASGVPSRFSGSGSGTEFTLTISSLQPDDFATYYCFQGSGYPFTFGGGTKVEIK",
    "readout_label": "Ag Score",
    "val": "4 arbitrary score (0-4)"
  },
  {
    "binder": "clone 9 (PFSW) (antibody, V domains shown) VH: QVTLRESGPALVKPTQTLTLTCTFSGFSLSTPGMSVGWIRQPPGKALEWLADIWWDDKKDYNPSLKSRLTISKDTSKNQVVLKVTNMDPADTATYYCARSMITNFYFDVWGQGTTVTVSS VL: DIQMTQSPSTLSASVGDRVTITCSASSSVGYMHWYQQKPGKAPKLLIYDTSKLASGVPSRFSGSGSGTEFTLTISSLQPDDFATYYCFQGSWYPFTFGGGTKVEIK",
    "readout_label": "Ag Score",
    "val": "3 arbitrary score (0-4)"
  }
]

### Prompt Answer with the recorded Ag Score for the binder listed here: clone 7 (PFFG) (antibody, V domains shown) VH: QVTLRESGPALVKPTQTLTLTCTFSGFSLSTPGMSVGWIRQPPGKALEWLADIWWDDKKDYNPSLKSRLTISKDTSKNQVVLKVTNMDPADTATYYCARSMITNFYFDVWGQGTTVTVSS VL: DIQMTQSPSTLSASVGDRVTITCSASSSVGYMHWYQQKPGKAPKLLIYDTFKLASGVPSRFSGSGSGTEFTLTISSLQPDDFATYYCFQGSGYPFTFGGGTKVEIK
### Response 3 arbitrary score (0-4)

### Prompt Answer with the recorded Ag Score for the binder listed here: clone 16 (PFSG) (antibody, V domains shown) VH: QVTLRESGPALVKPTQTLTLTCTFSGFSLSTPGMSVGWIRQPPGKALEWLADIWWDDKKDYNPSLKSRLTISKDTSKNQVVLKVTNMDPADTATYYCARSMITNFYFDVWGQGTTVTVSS VL: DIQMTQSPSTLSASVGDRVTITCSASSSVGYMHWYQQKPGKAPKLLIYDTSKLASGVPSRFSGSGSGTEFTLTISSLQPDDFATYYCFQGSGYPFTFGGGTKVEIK
### Response 2 arbitrary score (0-4)
